# TEST_SYSTEM: HLA-A2 MHC-I (HLA-A*0204) (Homo sapiens, UniProt P04439, D140Y/D185E/D98H/E176V/E277Q/G131W/G231S/I119V/I121M/I166T/I218V/L300P/L318F/N151K/N90K/P208A/P217A/Q86G/Q94H/R138H/R169H/T345S)
# MEASUREMENT_PROTOCOL: biochemical
Peptide text beside a SMILES is read from it.
Please use True for Kd under 0.1 µM and False for everything else, ties included.

MOLECULE	LABEL_VALUE
CC[C@H](C)[C@H](NC(=O)[C@H](CC(C)C)NC(=O)[C@H](C)NC(=O)[C@H](C)NC(=O)[C@H](CC(C)C)NC(=O)[C@H](C)N)C(=O)N[C@H](C(=O)N1CCC[C@H]1C(=O)N[C@H](C(=O)O)C(C)C)[C@@H](C)O [8.12mod] (H-ALAALITPV-OH)	True
CC[C@H](C)[C@H](NC(=O)[C@@H]1CCCN1C(=O)[C@@H]1CCCN1C(=O)[C@H](CC(N)=O)NC(=O)[C@H](CC(C)C)NC(=O)[C@@H](N)[C@@H](C)O)C(=O)N1CCC[C@H]1C(=O)N[C@H](C(=O)O)C(C)C [8.123mod] (H-TLNPPIPV-OH)	True
CC(C)C[C@H](NC(=O)[C@@H](N)CCCCN)C(=O)N[C@H](C(=O)N1CCC[C@H]1C(=O)N[C@@H](CC(C)C)C(=O)N[C@@H](CS)C(=O)N[C@H](C(=O)N[C@H](C(=O)N[C@H](C(=O)O)C(C)C)[C@@H](C)O)C(C)C)[C@@H](C)O [8.76mod] (H-KLTPLCVTV-OH)	True
CC(C)C[C@H](NC(=O)[C@H](CCCCN)NC(=O)[C@H](Cc1ccccc1)NC(=O)[C@H](CS)NC(=O)[C@H](Cc1c[nH]c2ccccc12)NC(=O)CNC(=O)[C@H](Cc1ccccc1)NC(=O)[C@H](CS)NC(=O)[C@@H](N)CC(C)C)C(=O)O [8.45natC] (H-LCFGWCFKL-OH)	False
CC(C)C[C@H](NC(=O)[C@@H](N)Cc1ccccc1)C(=O)NCC(=O)N[C@@H](C)C(=O)N[C@@H](C)C(=O)NCC(=O)N[C@@H](CO)C(=O)N[C@H](C(=O)O)[C@@H](C)O [8.135nat] (H-FLGAAGST-OH)	False
CC[C@H](C)[C@H](NC(=O)[C@H](C)NC(=O)[C@@H](NC(=O)[C@@H](NC(=O)[C@H](C)NC(=O)[C@H](C)NC(=O)[C@@H](NC(=O)[C@@H](N)C(C)C)C(C)C)[C@@H](C)CC)[C@@H](C)CC)C(=O)N[C@H](C(=O)O)C(C)C [8.1nat] (H-VVAAIIAIV-OH)	False
CC[C@H](C)[C@H](NC(=O)[C@H](Cc1ccc(O)cc1)NC(=O)[C@H](CCSC)NC(=O)[C@H](Cc1c[nH]cn1)NC(=O)[C@H](Cc1c[nH]cn1)NC(=O)[C@H](CCCCN)NC(=O)[C@@H](NC(=O)[C@H](CC(C)C)NC(=O)[C@@H](N)CO)C(C)C)C(=O)O [4.14 variant] (H-SLVKHHMYI-OH)	False
